Reference source for all entries: patent US7166738B2

target: UniProtKB P03366; assay: HIV Reverse Transcriptase Assay: Inhibitor IC50 Determination; type: biochemical; settings: purified recombinant enzyme, poly(rA)/oligo(dT)16 template-primer, 37° C. 30 min; read-out: RT inhibition
Measured pIC50, listed per entry.
// pIC50: -log10(molar conc.)

Previously resolved entries follow.
CCc1ccc(CC(=O)Nc2ccc(S(N)(=O)=O)cc2Cl)cc1Oc1cc(C#N)cc(C(F)F)c1 | 7.68
Cc1ccc(CC(=O)Nc2ccc(S(N)(=O)=O)cc2Cl)c(F)c1Oc1cc(Cl)cc(C#N)c1 | 8.09

// next item, pIC50 requested
Tell me reported pIC50 for CCc1ccc(CC(=O)Nc2ccc(S(N)(=O)=O)cc2C)c(F)c1Oc1cc(C#N)cc(C(F)F)c1 , tested with UniProtKB P03366.
8.04

###

Listed next: entries and their corresponding melting point.

CCc1ccc(CC(=O)Nc2ccc(S(N)(=O)=O)cc2)cc1Oc1cc(Br)cc(F)c1Cl | 209.9 to 211.1 °C
Cc1cc(C#N)cc(Oc2c(Cl)ccc(CC(=O)Nc3ccc(S(N)(=O)=O)cc3C)c2F)n1 | 230.1 to 230.7 °C
CCc1ccc(CC(=O)Nc2ccc(S(N)(=O)=O)cc2Cl)cc1Oc1cc(Cl)cc(C#N)c1 | 181.1 to 183.9 °C

I have this compound here, CCc1ccc(CC(=O)Nc2ccc(S(N)(=O)=O)cc2)cc1Oc1cc(C#N)cc(C#N)c1Cl , and I need its recorded melting point.
119.7 to 123.3 °C

Data request, read-out melting point, for CCc1ccc(CC(=O)Nc2ccc(S(N)(=O)=O)cc2C)cc1Oc1cc(C#N)cc(F)c1Cl
217.6 to 220.4 °C

Quick one: melting point for CCCC(=O)NS(=O)(=O)c1ccc(NC(=O)Cc2ccc(Cl)c(Oc3cc(Cl)cc(C#N)c3)c2F)c(Cl)c1.[Na] ?
157.2 to 157.9 °C

Returns the measured melting point for the input compound. Input: Cc1cc(S(N)(=O)=O)ccc1NC(=O)Cc1ccc(Br)c(Oc2cc(C#N)cc(C(F)F)c2)c1F
223.9 to 225 °C

###

assay-readout: melting point

For orientation, consider the following solved cases.
COc1ccc(CC(=O)Nc2ccc(S(N)(=O)=O)cc2C)cc1Oc1cc(C#N)cc(C(F)F)c1 [Compound I-93] | 175 to 177.2 °C
COc1ccc(CC(=O)Nc2ccc(S(N)(=O)=O)cc2C)c(F)c1Oc1cc(Cl)cc(C#N)c1 [Compound I-191] | 239.9 to 240.8 °C
CCc1ccc(CC(=O)Nc2ccccc2Cl)cc1Oc1cc(Cl)ccc1Cl [Compound I-21] | 146.3 to 147.1 °C
CCc1cc(CC(=O)Nc2ccc(S(N)(=O)=O)cc2Cl)cc(Oc2cc(C#N)ccc2Cl)c1 [Compound I-107] | 204 to 207 °C

# melting point lookup, item CCN(CC)CC(=O)NS(=O)(=O)c1ccc(NC(=O)Cc2ccc(Cl)c(Oc3cc(Cl)cc(C#N)c3)c2F)c(Cl)c1.Cl
195.3 to 197.2 °C

Which measured melting point value corresponds to Cc1cc(S(=O)(=O)CCC(=O)O)ccc1NC(=O)Cc1ccc(C)c(Oc2cc(Cl)cc(C#N)c2)c1 [Compound I-125] ?
74.3 to 76.5 °C

Please report the recorded melting point for CCc1ccc(CC(=O)Nc2ccc(S(N)(=O)=O)cc2C)cc1Oc1cc(Cl)cc(Br)c1Cl [Compound I-36] .
213.2 to 219.6 °C

State the recorded melting point for this entry: Cc1ccc(CC(=O)Nc2ccccc2Cl)c(F)c1Oc1cc(C#N)cc(C(F)F)c1 [Compound I-86]
163.3 to 164.4 °C

Returns the measured melting point for the input compound. Input: CCC(=O)N(C)S(=O)(=O)c1ccc(NC(=O)Cc2ccc(Cl)c(Oc3cc(Cl)cc(C#N)c3)c2F)c(Cl)c1 [Compound I-162]
198.2 to 200.6 °C

I would be grateful if you could share the reported melting point for CCc1ccc(CC(=O)Nc2ccc(S(=O)(=O)NC)cc2)cc1Oc1cc(Cl)cc(C#N)c1 [Compound I-48] .
149.1 to 151.3 °C

Which value of melting point has been reported for N#Cc1cc(Cl)cc(Oc2c(Cl)ccc(CC(=O)Nc3ccc(S(N)(=O)=O)cc3Cl)c2F)c1 [Compound I-100] in the records?
234.4 to 234.9 °C

Fill blank: measured melting point of the compound CCc1ccc(CC(=O)Nc2ccc(S(N)(=O)=O)cc2)cc1Oc1cc(Cl)ccc1Cl [Compound I-19] is ____.
190 to 193.4 °C

Name the reported melting point value associated with the compound Cc1cc(S(N)(=O)=O)ccc1NC(=O)Cc1ccc(C)c(Oc2cc(C#N)cc(C(F)F)c2)c1F [Compound I-85]
218 to 220.4 °C

Sample CCc1ccc(CC(=O)Nc2ccc(S(N)(=O)=O)cc2)cc1Oc1c(Cl)cccc1Cl [Compound I-20] — what was its melting point?
222.5 to 225 °C
